// provenance: paper PMC11277489

Here, each record is paired with measured GI50 data.
Tested on: 60 human tumor cell lines (NCI60)
assaySummary: NCI60 five-dose screen, whole panel and sub-panel means
Type: cell-based
particulars: Homo sapiens, 60 cell, mean over all 60 cell lines; read-out: GI50 Mean
readoutType: GI50 (µM)

CC[C@]12C=CCN3CC[C@@]4(c5ccc(OC)cc5N(C)[C@H]4[C@@](O)(C(=O)OC)[C@@H]1OC(=O)CCCN1CCN(Cc4ccc(F)cc4)CC1)[C@@H]32: 6.84
CCC12C=CCN3CCC4(c5cc(NC(=O)CN6CCN(c7ccc(C(F)(F)F)cc7)CC6)c(OC)cc5N(C)C4C(O)(C(=O)OC)C1OC(C)=O)C32 (centres unmarked): 5.53
CC[C@]12C=CCN3CC[C@@]4(c5ccc(OC)cc5N(C)[C@H]4[C@@](O)(C(=O)OC)[C@@H]1OC(=O)CCC(=O)N1CCN(Cc4ccc(C(F)(F)F)cc4)CC1)[C@@H]32: 9.76
CC[C@]12C=CCN3CC[C@@]4(c5ccc(OC)cc5N(C)[C@H]4[C@@](O)(C(=O)OC)[C@@H]1OC(=O)CCCN1CCN(Cc4ccc(C(F)(F)F)cc4)CC1)[C@@H]32: 1.65
CCC12C=CCN3CCC4(c5cc(NC(=O)CN6CCN(C(c7ccc(F)cc7)c7ccc(F)cc7)CC6)c(OC)cc5N(C)C4C(O)(C(=O)OC)C1OC(C)=O)C32 (centres unmarked): 6.27

====

Tested on: HCT-15
assaySummary: NCI60 one-dose screen (10 μM), Colon Cancer
Format: cell-based
particulars: Homo sapiens; 10 μM; HCT-15, Colon Cancer; read-out: Growth percent rate
readoutType: activity at 10 µM (%)

CCC12C=CCN3CCC4(c5ccc(OC)cc5N(C)C4C(O)(C(=O)OC)C1OC(=O)CCCN1CCN(C)CC1)C32 (stereo not drawn): 91.3
CCC12C=CCN3CCC4(c5cc(NC(=O)CN6CCN(c7ccc(C(F)(F)F)cc7)CC6)c(OC)cc5N(C)C4C(O)(C(=O)OC)C1OC(C)=O)C32 (stereo not drawn): -56.5
CC[C@]12C=CCN3CC[C@@]4(c5ccc(OC)cc5N(C)[C@H]4[C@@](O)(C(=O)OC)[C@@H]1OC(=O)CCCN1CCN(Cc4ccc(F)cc4)CC1)[C@@H]32: 15.7
CC[C@]12C=CCN3CC[C@@]4(c5ccc(OC)cc5N(C)[C@H]4[C@@](O)(C(=O)OC)[C@@H]1OC(=O)CCC(=O)N1CCN(c4ccc(C(F)(F)F)cc4)CC1)[C@@H]32: 6.71
CC[C@]12C=CCN3CC[C@@]4(c5ccc(OC)cc5N(C)[C@H]4[C@@](O)(C(=O)OC)[C@@H]1OC(=O)CCC(=O)N1CCN(Cc4ccc(F)cc4)CC1)[C@@H]32: 79.5
CC[C@]12C=CCN3CC[C@@]4(c5ccc(OC)cc5N(C)[C@H]4[C@@](O)(C(=O)OC)[C@@H]1OC(=O)CCC(=O)N1CCN(C(c4ccc(F)cc4)c4ccc(F)cc4)CC1)[C@@H]32: 3.11

====

Test system: LOX IMVI
assaySummary: NCI60 one-dose screen (10 μM), Melanoma
Type: cell-based, human
particulars: Homo sapiens; 10 μM; LOX IMVI, Melanoma; read-out: Growth percent rate
List of activity at 10 µM values.
readoutType: activity at 10 µM (%)

CC[C@]12C=CCN3CC[C@@]4(c5ccc(OC)cc5N(C)[C@H]4[C@@](O)(C(=O)OC)[C@@H]1OC(=O)CCC(=O)N1CCN(C(c4ccc(F)cc4)c4ccc(F)cc4)CC1)[C@@H]32 [Compound 31]: -56
CC[C@]12C=CCN3CC[C@@]4(c5ccc(OC)cc5N(C)[C@H]4[C@@](O)(C(=O)OC)[C@@H]1OC(=O)CCCN1CCN(Cc4ccc(C(F)(F)F)cc4)CC1)[C@@H]32 [Compound 23]: -54.4
CC[C@]12C=CCN3CC[C@@]4(c5ccc(OC)cc5N(C)[C@H]4[C@@](O)(C(=O)OC)[C@@H]1OC(=O)CCC(=O)N1CCN(Cc4ccc(F)cc4)CC1)[C@@H]32 [Compound 30]: 71.8
CCC12C=CCN3CCC4(c5cc(NC(=O)CN6CCN(C)CC6)c(OC)cc5N(C)C4C(O)(C(=O)OC)C1OC(C)=O)C32 (stereo not shown) [Compound 16]: 95.2

====

System: M14
assaySummary: NCI60 five-dose screen, Melanoma
Format: cell-based
particulars: Homo sapiens; M14, Melanoma; five-dose screen; read-out: GI50
Threshold check on GI50: strictly below 4 µM is 1 (yes); on or above 4 µM is 0 (no).

CC[C@]12C=CCN3CC[C@@]4(c5ccc(OC)cc5N(C)[C@H]4[C@@](O)(C(=O)OC)[C@@H]1OC(=O)CCCN1CCN(Cc4ccc(C(F)(F)F)cc4)CC1)[C@@H]32: 1 (yes)
CC[C@]12C=CCN3CC[C@@]4(c5ccc(OC)cc5N(C)[C@H]4[C@@](O)(C(=O)OC)[C@@H]1OC(=O)CCC(=O)N1CCN(Cc4ccc(C(F)(F)F)cc4)CC1)[C@@H]32: 0 (no)
CC[C@]12C=CCN3CC[C@@]4(c5ccc(OC)cc5N(C)[C@H]4[C@@](O)(C(=O)OC)[C@@H]1OC(=O)CCCN1CCN(Cc4ccc(F)cc4)CC1)[C@@H]32: 0 (no)
CC[C@]12C=CCN3CC[C@@]4(c5ccc(OC)cc5N(C)[C@H]4[C@@](O)(C(=O)OC)[C@@H]1OC(=O)CCC(=O)N1CCN(C(c4ccc(F)cc4)c4ccc(F)cc4)CC1)[C@@H]32: 1 (yes)
CCC12C=CCN3CCC4(c5cc(NC(=O)CN6CCN(c7ccc(C(F)(F)F)cc7)CC6)c(OC)cc5N(C)C4C(O)(C(=O)OC)C1OC(C)=O)C32 (centres unmarked): 1 (yes)

====

# maps each entry to its activity at 10 µM
Tested on: SK-OV-3
assaySummary: NCI60 one-dose screen (10 μM), Ovarian Cancer
Assay type: cell-based
particulars: Homo sapiens; 10 μM; SK-OV-3, Ovarian Cancer; read-out: Growth percent rate
readoutType: activity at 10 µM

CC[C@]12C=CCN3CC[C@@]4(c5ccc(OC)cc5N(C)[C@H]4[C@@](O)(C(=O)OC)[C@@H]1OC(=O)CCCN1CCN(Cc4ccc(F)cc4)CC1)[C@@H]32: 70%
CCC12C=CCN3CCC4(c5cc(NC(=O)CN6CCN(C(c7ccc(F)cc7)c7ccc(F)cc7)CC6)c(OC)cc5N(C)C4C(O)(C(=O)OC)C1OC(C)=O)C32 (centres unmarked): 45.4%
CC[C@]12C=CCN3CC[C@@]4(c5ccc(OC)cc5N(C)[C@H]4[C@@](O)(C(=O)OC)[C@@H]1OC(=O)CCC(=O)N1CCN(Cc4ccc(C(F)(F)F)cc4)CC1)[C@@H]32: 12.4%
CC[C@]12C=CCN3CC[C@@]4(c5ccc(OC)cc5N(C)[C@H]4[C@@](O)(C(=O)OC)[C@@H]1OC(=O)CCCN1CCN(c4ccc(C(F)(F)F)cc4)CC1)[C@@H]32: 23.6%
CC[C@]12C=CCN3CC[C@@]4(c5ccc(OC)cc5N(C)[C@H]4[C@@](O)(C(=O)OC)[C@@H]1OC(=O)CCCN1CCN(C(=O)c4ccco4)CC1)[C@@H]32: 108%

====

Tested on: MCF7
assaySummary: NCI60 one-dose screen (10 μM), Breast Cancer
Type: cell-based
particulars: Homo sapiens; 10 μM; MCF7, Breast Cancer; read-out: Growth percent rate
Entries annotated with measured activity at 10 µM
readoutType: activity at 10 µM (%)

CCC12C=CCN3CCC4(c5ccc(OC)cc5N(C)C4C(O)(C(=O)OC)C1OC(=O)CCCBr)C32 (centres unmarked): 80.3
CC[C@]12C=CCN3CC[C@@]4(c5ccc(OC)cc5N(C)[C@H]4[C@@](O)(C(=O)OC)[C@@H]1OC(=O)CCC(=O)N1CCN(c4ccc(C(F)(F)F)cc4)CC1)[C@@H]32: 3.97
CC[C@]12C=CCN3CC[C@@]4(c5ccc(OC)cc5N(C)[C@H]4[C@@](O)(C(=O)OC)[C@@H]1OC(=O)CCCN1CCN(c4ccc(C(F)(F)F)cc4)CC1)[C@@H]32: -51.5
CCC12C=CCN3CCC4(c5ccc(OC)cc5N(C)C4C(O)(C(=O)OC)C1OC(=O)CCCN1CCN(C)CC1)C32 (centres unmarked): 78
CC[C@]12C=CCN3CC[C@@]4(c5ccc(OC)cc5N(C)[C@H]4[C@@](O)(C(=O)OC)[C@@H]1OC(=O)CCCN1CCN(Cc4ccc(F)cc4)CC1)[C@@H]32: 6.31
CC[C@]12C=CCN3CC[C@@]4(c5ccc(OC)cc5N(C)[C@H]4[C@@](O)(C(=O)OC)[C@@H]1OC(=O)CCC(=O)N1CCN(Cc4ccc(C(F)(F)F)cc4)CC1)[C@@H]32: 10.9
CCC12C=CCN3CCC4(c5cc(NC(=O)CCl)c(OC)cc5N(C)C4C(O)(C(=O)OC)C1OC(C)=O)C32 (centres unmarked): 2.74
CC[C@]12C=CCN3CC[C@@]4(c5ccc(OC)cc5N(C)[C@H]4[C@@](O)(C(=O)OC)[C@@H]1OC(=O)CCCN1CCN(Cc4ccc(C(F)(F)F)cc4)CC1)[C@@H]32: -74.3
CCC12C=CCN3CCC4(c5cc(NC(=O)CN6CCN(C(=O)c7ccco7)CC6)c(OC)cc5N(C)C4C(O)(C(=O)OC)C1OC(C)=O)C32 (centres unmarked): 98.3
CCC12C=CCN3CCC4(c5ccc(OC)cc5N(C)C4C(O)(C(=O)OC)C1OC(=O)CCC(=O)O)C32 (centres unmarked): 68.2
CC[C@]12C=CCN3CC[C@@]4(c5ccc(OC)cc5N(C)[C@H]4[C@@](O)(C(=O)OC)[C@@H]1OC(=O)CCCN1CCN(C(=O)c4ccco4)CC1)[C@@H]32: 88.7
